# System: HEK293
# Assay Method Text: Cytotoxicity against HEK293 cells assessed as growth inhibition after 72 hrs by Cell-Titer Glo assay
# Type: cell-based
# Study Conditions: Homo sapiens, HEK293, 72 h
Property Measured: EC50

Exercise: Determine from records and report EC50 for "CC(C)(CCl)C(=O)Nc1cccc(-c2nc3ccccc3s2)c1"
Solution: > 25 µM

Exercise: Determine from records and report EC50 for "O=C(Nc1ccc(F)c(-c2nc3ccccc3s2)c1)c1cnccc1Cl"
Solution: > 25 µM

Exercise: Determine from records and report EC50 for "COc1ccc(-c2nc3ccccc3s2)cc1NC(=O)c1cnccc1Cl"
Solution: > 25 µM

Exercise: Determine from records and report EC50 for "O=C(Nc1cc(-c2nc3ccccc3s2)ccc1F)c1cnccc1Cl"
Solution: > 25 µM

Exercise: Determine from records and report EC50 for "O=C(O)/C=C/C(=O)Nc1cccc(-c2nc3ccccc3s2)c1"
Solution: > 25 µM

Exercise: Determine from records and report EC50 for "O=C(CCl)Nc1cccc(-c2nc3ccccc3s2)c1"
Solution: 10 µM

###

# Assay Method Text: Half life in mouse liver microsomes
# Type: ADME, Microsome
Property Measured: half-life (min)
Dear colleague, please return just the value in min, with no unit written.

Exercise: Determine from records and report half-life for "Cc1ccc(-c2nc3ccccc3s2)cc1NC(=O)c1cnccc1Cl"
Solution: 34.8

###

# Assay Method Text: Permeability of the compound by PAMPA
# Type: ADME
# Study Conditions: read-out: permeability
Please go through the items and note down their Papp.
Dear colleague, please return just the value in ×10⁻⁶ cm/s, with no unit written.

Exercise: Determine from records and report Papp for "Cc1ccc(-c2nc3ccccc3s2)cc1NC(=O)c1cnccc1Cl"
Solution: 791

Exercise: Determine from records and report Papp for "CC(C)(CCl)C(=O)Nc1cccc(-c2nc3ccccc3s2)c1"
Solution: 891

Exercise: Determine from records and report Papp for "O=C(O)/C=C/C(=O)Nc1cccc(-c2nc3ccccc3s2)c1"
Solution: 4

Exercise: Determine from records and report Papp for "O=C(Nc1cc(-c2nc3ccccc3s2)ccc1F)c1cnccc1Cl"
Solution: 306

Exercise: Determine from records and report Papp for "O=C(Nc1cc(-c2nc3ccccc3o2)ccc1F)c1cnccc1Cl"
Solution: 258

Exercise: Determine from records and report Papp for "C=C(C)C(=O)Nc1cccc(-c2nc3ccccc3s2)c1"
Solution: 987

Exercise: Determine from records and report Papp for "O=C(Nc1cccc(-c2nc3ccccc3s2)c1)c1cc([N+](=O)[O-])cnc1Cl"
Solution: 42

Exercise: Determine from records and report Papp for "O=C(Nc1cccc(-c2nc3ccccc3s2)c1)c1ccncc1Cl"
Solution: 563

Exercise: Determine from records and report Papp for CC(Cl)C(=O)Nc1cccc(-c2nc3ccccc3s2)c1 (configuration not stated)
Solution: 769

Exercise: Determine from records and report Papp for "O=C(Nc1ccc(F)c(-c2nc3ccccc3s2)c1)c1cnccc1Cl"
Solution: 21

Exercise: Determine from records and report Papp for "COc1ccc(-c2nc3ccccc3s2)cc1NC(=O)c1cnccc1Cl"
Solution: 121

Exercise: Determine from records and report Papp for "O=C(Nc1cccc(-c2nc3ccccc3s2)c1)c1ccnc(Cl)c1"
Solution: 478

Exercise: Determine from records and report Papp for "O=C(Nc1cccc(-c2nc3ccccc3s2)c1)c1cccnc1Cl"
Solution: 677

Exercise: Determine from records and report Papp for "O=C(CCl)Nc1cccc(-c2nc3ccccc3s2)c1"
Solution: 660

Exercise: Determine from records and report Papp for "O=C(Nc1ccc(Cl)cc1)c1cc([N+](=O)[O-])ccc1Cl"
Solution: 536

Exercise: Determine from records and report Papp for "O=C(Nc1ccc(F)c(-c2nc3ccccc3o2)c1)c1cnccc1Cl"
Solution: 305

Exercise: Determine from records and report Papp for "O=C(Nc1cccc(-c2nc3ccccc3s2)c1)c1cnccc1Cl"
Solution: 732

Exercise: Determine from records and report Papp for "O=C(Nc1cccc(-c2nc3ccccc3s2)c1)c1cnc(Cl)s1"
Solution: 133

Exercise: Determine from records and report Papp for "O=C(Nc1cccc(-c2nc3ccccc3s2)c1)c1ccc(Cl)nc1Cl"
Solution: 104

Exercise: Determine from records and report Papp for "Cc1ccc(-c2nc3ccccc3o2)cc1NC(=O)c1cnccc1Cl"
Solution: 646

Exercise: Determine from records and report Papp for "COc1ccc(-c2nc3ccccc3o2)cc1NC(=O)c1cnccc1Cl"
Solution: 391

Exercise: Determine from records and report Papp for "C=CC(=O)Nc1cccc(-c2nc3ccccc3s2)c1"
Solution: 797
